biological target: Interstitial collagenase (Homo sapiens, UniProt P03956)
Sequence (P03956 whole entry): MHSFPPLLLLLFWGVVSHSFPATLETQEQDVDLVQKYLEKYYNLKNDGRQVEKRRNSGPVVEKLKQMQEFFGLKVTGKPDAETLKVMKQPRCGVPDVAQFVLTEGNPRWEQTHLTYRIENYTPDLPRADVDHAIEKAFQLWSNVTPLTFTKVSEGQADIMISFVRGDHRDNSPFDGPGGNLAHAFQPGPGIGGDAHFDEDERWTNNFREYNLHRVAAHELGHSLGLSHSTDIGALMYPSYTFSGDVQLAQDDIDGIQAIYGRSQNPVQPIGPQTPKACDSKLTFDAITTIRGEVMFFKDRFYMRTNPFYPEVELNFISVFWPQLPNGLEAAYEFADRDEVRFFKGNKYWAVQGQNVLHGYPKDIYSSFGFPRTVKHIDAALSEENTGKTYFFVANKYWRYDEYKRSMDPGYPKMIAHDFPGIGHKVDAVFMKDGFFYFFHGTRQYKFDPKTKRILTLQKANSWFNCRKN
Structures can show the parent of a compound that is named as a salt. *1 amine or outer side, *2 acyl side, *3 side chain or, on linkers, in order; H or OH if unused. Where a SMILES comes first, the peptide text is derived from it. [ ]: non-standard residue; d: D form. The star is where a group is joined. Hydrocinnamoyl = O=C(CCc1ccccc1)*; 3Pal = N[C@@H](Cc1cccnc1)C(=O)O; CO = O=C([*:1])[*:2]; Tfa = O=C(C(F)(F)F)*; NHPh = c1ccc(N*)cc1
readout: pIC50
Recall that pIC50 is obtained by taking minus log10 of the concentration measured in molar.

// below: answered compounds
# compound, pIC50
records = [
    ("NC(=O)[C@H](Cc1cccnc1)NC(=O)[C@H](CS)NC(=O)c1cn[nH]c1", 7.59),
    ("NC(=O)[C@H](Cc1ccccc1)NC(=O)[C@H](CS)NC(=O)c1ccc2c(c1)OCO2", 6.67),
    ("NC(=O)[C@H](Cc1ccccc1)NC(=O)[C@H](CS)NC(=O)CCc1ccccc1 (Hydrocinnamoyl-Cys-Phe-NH2)", 5.46),
    ("CC(=O)N[C@@H](CS)C(=O)N[C@@H](Cc1cccnc1)C(N)=O (Ac-Cys-[3Pal]-NH2)", 5.40),
]

I would be grateful if you could share the reported pIC50 for NC(=O)[C@H](Cc1ccccc1)NC(=O)[C@H](CS)NC(=O)Nc1ccccc1 ({NHPh-CO}-Cys-Phe-NH2) . 7.40

Please report the recorded pIC50 for COC(=O)[C@H](Cc1ccccc1)NC(=O)[C@H](CS)NC(=O)C(F)(F)F (Tfa-Cys-Phe-OMe) . 7.20

Name the reported pIC50 value associated with the compound NC(=O)[C@H](Cc1ccccc1)NC(=O)[C@H](CS)NC(=O)c1ccc(-c2ccccc2)cc1 6.37
